// data source = paper PMC3667199

- Test Target: PTP10D (Drosophila melanogaster)
- Sequence (P35992 1226-1533): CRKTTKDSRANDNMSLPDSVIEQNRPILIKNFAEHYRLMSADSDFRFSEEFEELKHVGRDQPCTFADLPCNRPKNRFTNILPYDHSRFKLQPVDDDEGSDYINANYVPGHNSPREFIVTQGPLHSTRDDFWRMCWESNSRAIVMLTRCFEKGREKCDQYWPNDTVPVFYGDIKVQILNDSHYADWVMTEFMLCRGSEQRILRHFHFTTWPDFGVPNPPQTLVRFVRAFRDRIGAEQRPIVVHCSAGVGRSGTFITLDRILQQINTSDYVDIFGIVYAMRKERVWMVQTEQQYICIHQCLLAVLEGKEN
Recorded Metric: Ki (nM)
The response must be a number in nM with no trailing unit.

Which measured Ki belongs to [O]=[V]([OH])([OH])[OH] [sodium vanadate] , tested on PTP10D (Drosophila melanogaster)?
1530
